target: WT/R232 STING protein (Homo sapiens, UniProt Q86WV6, H232R); assay: Luciferase reporter assay in HEK293T-hSTING-Luciferase cells (R232); settings: 20 hr stimulation, EC50 range
Sequence (Q86WV6 whole entry H232R): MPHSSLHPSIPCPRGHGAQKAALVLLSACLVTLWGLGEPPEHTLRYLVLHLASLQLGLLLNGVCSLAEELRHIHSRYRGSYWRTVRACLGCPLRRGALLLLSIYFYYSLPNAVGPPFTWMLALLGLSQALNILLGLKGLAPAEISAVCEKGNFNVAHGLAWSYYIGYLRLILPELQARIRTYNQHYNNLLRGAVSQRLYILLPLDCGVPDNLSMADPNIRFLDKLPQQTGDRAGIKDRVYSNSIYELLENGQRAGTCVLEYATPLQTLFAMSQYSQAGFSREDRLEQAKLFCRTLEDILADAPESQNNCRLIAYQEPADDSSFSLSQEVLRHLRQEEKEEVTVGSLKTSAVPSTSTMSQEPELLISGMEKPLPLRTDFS
pEC50: −log10 of the molar value.
Outcome Measure: pEC50

Query (molecule): CC1(C#N)C(=O)N(Cc2c(F)cccc2Cl)c2cc(C(=O)NCc3c(F)cc(F)cc3F)ccc21 (stereo not drawn) [Example 164] ; field requested: pEC50
≥ 6.00

Query (molecule): Cc1ccc(CNC(=O)c2ccc3c(c2)N(Cc2cc(F)cc(F)c2)C(=O)C3(C)C)o1 ; field requested: pEC50
5.00 to 6.00

Query (molecule): Cc1ccc(-c2nc(CN3C(=O)C(C)(C)c4ccc(C(=O)NCc5c(F)cc(F)cc5F)cc43)c(C)o2)cc1 ; field requested: pEC50
< 5.00

Query (molecule): O=C(NCc1c(F)cc(F)cc1F)c1ccc2c(c1)N(Cc1c(F)cccc1Cl)C(=O)C2(O)c1ccccc1 (stereo not drawn) ; field requested: pEC50
< 5.00

Query (molecule): Cn1cccc1CNC(=O)c1ccc2c(c1)N(Cc1c(F)cccc1Cl)C(=O)C2(C)C ; field requested: pEC50
< 5.00

Query (molecule): Cc1cccc(F)c1CN1C(=O)C(C)(C)c2ccc(C(=O)NCc3c(F)cc(F)cc3F)cc21 ; field requested: pEC50
≥ 6.00

Query (molecule): CC1(C)C(=O)N(Cc2coc3ccccc23)c2cc(C(=O)NCc3c(F)cc(F)cc3F)ccc21 ; field requested: pEC50
5.00 to 6.00

Query (molecule): CCC1(Cl)C(=O)N(Cc2c(F)cccc2Cl)c2cc(C(=O)NCc3c(F)cc(F)cc3F)ccc21 (stereo not drawn) ; field requested: pEC50
≥ 6.00

Query (molecule): CN(C)C1(C)C(=O)N(Cc2c(F)cccc2Cl)c2cc(C(=O)NCc3c(F)cc(F)cc3F)ccc21 (stereo not drawn) ; field requested: pEC50
5.00 to 6.00

Query (molecule): CC1(C)C(=O)N(Cc2cc(F)cc(F)c2)c2cc(C(=O)NCc3ccc(F)cc3)cnc21 ; field requested: pEC50
5.00 to 6.00

Query (molecule): CC1(C)C(=O)N(Cc2cc(F)cc(F)c2)c2cc(C(=O)NCc3ccc(N=[N+]=[N-])cc3)ccc21 ; field requested: pEC50
5.00 to 6.00

Query (molecule): Cc1cnc(CNC(=O)c2ccc3c(c2)N(Cc2c(F)cccc2Cl)C(=O)C3(C)C)o1 ; field requested: pEC50
5.00 to 6.00

Query (molecule): CC1(CN)C(=O)N(Cc2cc(F)cc(F)c2)c2cc(C(=O)NCc3c(F)cc(F)cc3F)ccc21 (stereo not drawn) ; field requested: pEC50
< 5.00

Query (molecule): CC1(C)C(=O)N(Cc2cc(F)cc(F)c2)c2nc(C(=O)NCc3cc4ccncc4o3)ccc21 ; field requested: pEC50
< 5.00

Query (molecule): Cc1cc(CN2C(=O)C(C)(C)c3ccc(C(=O)NCc4c(F)cc(F)cc4F)cc32)cc(C(F)(F)F)c1 ; field requested: pEC50
5.00 to 6.00

Query (molecule): CC1(C)CN(C(=O)Cc2ccccc2)c2cc(C(=O)NCc3c(F)cc(F)cc3F)ccc21 ; field requested: pEC50
5.00 to 6.00

Query (molecule): Cc1ccc(CNC(=O)c2ccc3c(c2)N(Cc2c(F)cccc2Cl)C(=O)C3(C)C)o1 ; field requested: pEC50
≥ 6.00

Query (molecule): O=C(NCc1c(F)cc(F)cc1F)c1ccc2c(c1)N(Cc1c(F)cccc1Cl)C(=O)C2=O ; field requested: pEC50
< 5.00

Query (molecule): CC1(C)C(=O)N(Cc2c(F)cccc2Cl)c2cc(C(=O)NCc3cc4ccccc4o3)ccc21 ; field requested: pEC50
≥ 6.00

Query (molecule): CC1(C)C(=O)N(Cc2c(F)cccc2Cl)c2cc(C(=O)NCc3cc4cc(F)ccc4o3)ccc21 ; field requested: pEC50
≥ 6.00

Query (molecule): CC1(C)C(=O)N(Cc2cccc(F)c2)c2cc(C(=O)NCc3c(F)cc(F)cc3F)ccc21 ; field requested: pEC50
≥ 6.00
